Where do the numbers come from? From patent US12448369B2.

- Tested on: Rabbit Psoas myofibrils (skeletal myosin ATPase)
- assay.details: Myofibril ATPase assay, rabbit psoas (skeletal) myofibrils
- Format: biochemical
- measurement.parameters: Y75 value (no ‡ mark); rabbit psoas myofibrils
observable: Skeletal EC25 (nM)

Consider the worked cases shown below.
Cc1c(F)ccc2[nH]c(=O)c(C(F)(F)C(=O)N[C@@H](C)c3ncc(C#N)cc3F)c(C#N)c12 (single isomer, unassigned) | 70
Cc1c(C2(C(=O)N[C@@H]3CCc4cc(C#N)cnc43)CC2)c(=O)[nH]c2ccc(F)c(F)c12 (single isomer, unassigned) | 270

[1] C[C@H](NC(=O)Cc1cc2c(C#N)cccc2[nH]c1=O)c1ncc(C#N)cn1 (single isomer, unassigned)
[2] Cc1c(C(F)(F)C(=O)N[C@H](C)c2ncc(C#N)cc2F)c(=O)[nH]c2cccc(C#N)c12 (single isomer, unassigned)
Compare 1 and 2 and name the one whose reported Skeletal EC25 is smaller. Answer format: the label of the selected item.
2
(2: 150 nM, 1: 100000 nM)

[A] C[C@H](NC(=O)Cc1cc2c(F)c(F)ccc2[nH]c1=O)c1ccc(C#N)cn1
[B] C[C@H](NC(=O)Cc1cc2cc(F)c(F)cc2[nH]c1=O)c1ccc(C#N)cn1
Kindly compare A with B and tell me which has the lower Skeletal EC25 figure. Refer to your chosen item by its label in the answer.
A
(A: 80 nM, B: 11400 nM)

---

- Test system: Rabbit Psoas myofibrils (skeletal myosin ATPase)
- assay.details: Myofibril ATPase assay, rabbit psoas (skeletal) myofibrils
- Type: biochemical
- measurement.parameters: rabbit psoas myofibrils; Y75 value
observable: Skeletal EC25 (nM)

[a] C[C@H](NC(=O)[C@@H](C)c1cc2nc(F)ccc2[nH]c1=O)c1ccc(F)cc1F (single isomer, unassigned) [compound 364]
[b] Cc1ccccc1[C@@H](CO)NC(=O)Cc1c(C)c2c(C)nccc2[nH]c1=O (single isomer, unassigned) [compound 337]
[c] Cc1nccc2[nH]c(=O)c(CC(=O)N[C@@H](CCO)c3ccc(F)cc3F)c(C)c12 (single isomer, unassigned) [compound 342]
Sort the items above on Skeletal EC25, descending. Labels, requested order.
b, c, a
(b: 100000 nM, c: 11140 nM, a: 440 nM)

---

- Test system: SD rats
- assay.details: Echocardiography of systolic cardiac performance (HR, FS, LV volumes, SWT) after a single oral dose
- Type: in vivo
- measurement.parameters: Rattus norvegicus, single dose 10 mg/kg PO, ~2 hrs post-dosing, isoflurane-anesthetized, EDV change vs vehicle, read-out: EDV % vs. VEH
observable: change in vivo at 10 mg/kg

Cc1c(CC(=O)N[C@@H](C)c2ncc(C#N)cc2F)c(=O)[nH]c2ccc(F)c(F)c12 | 1 to 10%
Cc1c(CC(=O)N[C@@H](C)c2ncc(C#N)cn2)c(=O)[nH]c2ccc(F)c(F)c12 | 1 to 10%

Kindly note the recorded change in vivo at 10 mg/kg for Cc1c(CC(=O)N[C@@H](C)c2cnc(C#N)cn2)c(=O)[nH]c2ccc(F)c(F)c12 , which is 1 to 20%

Recorded result, Cc1c(CC(=O)N[C@H](C)c2ncc(C#N)cn2)c(=O)[nH]c2ccc(F)c(F)c12 , change in vivo at 10 mg/kg: 21 to 40%

change in vivo at 10 mg/kg recorded for this compound, Cc1c(CC(=O)N[C@H](C)c2ncc(C#N)cc2F)c(=O)[nH]c2ccc(F)c(C3CC3)c12 , is 11 to 20%

---

- Tested on: Porcine atria myofibrils (atrial myosin ATPase)
- assay.details: Myofibril ATPase assay, porcine atria myofibrils
- Format: biochemical
- measurement.parameters: porcine atria myofibrils; Y75 value (75% activity relative to no compound)
observable: Atrial EC25 (µM)

Cc1c(CC(=O)N[C@H](CO)c2ncc(F)cc2F)c(=O)[nH]c2ccnc(C(F)(F)F)c12 | 100.00
Cc1nccc2[nH]c(=O)c(CC(=O)N[C@@H](C)c3ccc(F)cc3F)c(F)c12 | 0.06
C[C@H](NC(=O)[C@H](C)c1cc2c(F)nccc2[nH]c1=O)c1ccc(F)cc1F (single isomer, unassigned) | 1.66
COc1nccc2[nH]c(=O)c([C@@H](C)C(=O)N[C@@H](C)c3ccc(F)cc3F)c(C(F)(F)F)c12 (single isomer, unassigned) | 94.54
Cc1nc(C#N)cnc1[C@H](C)NC(=O)C(F)(F)c1c(C)c2c(C)nccc2[nH]c1=O (single isomer, unassigned) | 1.90

[A] Cc1nccc2[nH]c(=O)c(CC(=O)N[C@@H](C)c3ccc(C#N)cc3F)c(C#N)c12
[B] C[C@H](NC(=O)Cc1c(C2CC2)c2cnccc2[nH]c1=O)c1ncc(C#N)cc1F
Of the two listed items, A and B , which carries the larger Atrial EC25 figure? Which one? Tell me its label.
B

---

- tested.target: Porcine ventricle myofibrils (ventricular myosin ATPase) (Sus scrofa, UniProt P79293)
- Construct: Myofibrils from porcine cardiac muscle was isolated from the left ventricle of Yucatan minipigs; tissue Exemplar Genetics; host or cells: left ventricle of Yucatan minipigs, myofibrils prepared in house
- Sequence (P79293 whole entry): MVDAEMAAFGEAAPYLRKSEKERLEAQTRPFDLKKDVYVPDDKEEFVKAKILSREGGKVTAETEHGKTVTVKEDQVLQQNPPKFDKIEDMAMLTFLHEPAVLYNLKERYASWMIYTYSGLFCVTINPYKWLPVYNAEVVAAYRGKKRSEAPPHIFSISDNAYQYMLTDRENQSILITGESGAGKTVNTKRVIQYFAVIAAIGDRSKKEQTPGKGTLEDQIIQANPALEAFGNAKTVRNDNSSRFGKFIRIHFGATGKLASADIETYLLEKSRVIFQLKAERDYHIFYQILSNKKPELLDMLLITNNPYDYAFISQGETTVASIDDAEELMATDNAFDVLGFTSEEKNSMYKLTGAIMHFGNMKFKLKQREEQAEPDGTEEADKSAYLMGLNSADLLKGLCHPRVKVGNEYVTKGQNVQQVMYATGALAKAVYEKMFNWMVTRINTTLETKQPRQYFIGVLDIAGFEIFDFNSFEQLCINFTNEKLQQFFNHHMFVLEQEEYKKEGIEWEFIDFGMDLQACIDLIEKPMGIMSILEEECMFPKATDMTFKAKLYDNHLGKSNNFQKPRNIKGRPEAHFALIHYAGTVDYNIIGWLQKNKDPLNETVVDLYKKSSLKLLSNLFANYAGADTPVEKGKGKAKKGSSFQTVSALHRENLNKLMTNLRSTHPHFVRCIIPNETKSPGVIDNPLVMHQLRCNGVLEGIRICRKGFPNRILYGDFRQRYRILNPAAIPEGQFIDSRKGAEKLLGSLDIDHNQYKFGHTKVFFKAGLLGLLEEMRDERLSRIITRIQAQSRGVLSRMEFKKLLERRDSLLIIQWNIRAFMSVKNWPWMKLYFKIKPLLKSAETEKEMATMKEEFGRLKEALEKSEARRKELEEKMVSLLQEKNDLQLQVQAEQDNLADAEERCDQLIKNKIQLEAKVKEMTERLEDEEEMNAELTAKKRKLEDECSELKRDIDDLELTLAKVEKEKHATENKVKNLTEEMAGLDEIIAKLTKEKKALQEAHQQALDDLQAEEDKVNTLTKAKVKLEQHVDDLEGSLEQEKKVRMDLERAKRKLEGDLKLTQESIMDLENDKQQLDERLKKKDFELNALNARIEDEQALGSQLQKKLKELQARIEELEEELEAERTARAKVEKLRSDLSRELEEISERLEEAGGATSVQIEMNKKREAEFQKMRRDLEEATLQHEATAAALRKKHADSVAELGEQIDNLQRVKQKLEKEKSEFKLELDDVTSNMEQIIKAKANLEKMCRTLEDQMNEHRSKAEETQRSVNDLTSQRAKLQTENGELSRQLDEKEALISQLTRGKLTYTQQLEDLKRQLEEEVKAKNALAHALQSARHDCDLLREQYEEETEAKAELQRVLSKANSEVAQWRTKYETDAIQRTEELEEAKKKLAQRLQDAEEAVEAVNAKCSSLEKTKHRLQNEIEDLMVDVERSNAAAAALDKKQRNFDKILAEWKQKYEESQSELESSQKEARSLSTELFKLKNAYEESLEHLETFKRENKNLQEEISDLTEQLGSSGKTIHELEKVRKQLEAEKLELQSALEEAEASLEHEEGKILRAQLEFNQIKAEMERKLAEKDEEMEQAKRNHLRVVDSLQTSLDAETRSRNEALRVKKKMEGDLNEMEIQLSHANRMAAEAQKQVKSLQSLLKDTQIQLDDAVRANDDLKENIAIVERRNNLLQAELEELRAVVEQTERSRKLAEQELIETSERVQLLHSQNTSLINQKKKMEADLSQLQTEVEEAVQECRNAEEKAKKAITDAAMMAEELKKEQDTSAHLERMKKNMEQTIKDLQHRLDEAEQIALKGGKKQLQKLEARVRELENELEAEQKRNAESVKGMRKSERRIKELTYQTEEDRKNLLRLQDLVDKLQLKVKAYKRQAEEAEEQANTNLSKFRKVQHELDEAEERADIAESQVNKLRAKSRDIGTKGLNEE
- assay.details: Myofibril ATPase assay, porcine ventricle myofibrils
- Format: biochemical, porcine (Yucatan minipigs)
- measurement.parameters: Y75 value (no ‡ mark); porcine ventricle myofibrils
observable: Ventricular EC25 (µM)

Cc1c(C2(C(=O)N[C@H](C)c3ncc(C#N)cc3F)CC2)c(=O)[nH]c2ccc(F)c(C(F)(F)F)c12 (single isomer, unassigned) [compound 4801] | 100.00

[I] Cc1nnccc1[C@H](C)NC(=O)Cc1c(C)c2cc(F)ccc2[nH]c1=O [compound 1091]
[II] Cc1cc([C@@H](C)NC(=O)Cc2c(C)c3c(C)c(F)ccc3[nH]c2=O)ncc1F (single isomer, unassigned) [compound 2076]
I or II : whose Ventricular EC25 is greater? Indicate which entry you chose by stating its label.
I

---

- System: Rabbit Psoas myofibrils (skeletal myosin ATPase)
- assay.details: Myofibril ATPase assay, rabbit psoas (skeletal) myofibrils
- Type: biochemical
- measurement.parameters: rabbit psoas myofibrils; Y75 value
observable: Skeletal EC25 (µM)

Please review the following examples before continuing.
Cc1c(CC(=O)N[C@@H](CO)c2ccc(F)cc2F)c(=O)[nH]c2ccc(C(F)(F)F)nc12 | 0.71
Cc1c(CC(=O)N[C@@H](C)c2ccc(C#N)cc2F)c(=O)[nH]c2cnnc(C#N)c12 | 0.04

[A] C[C@H](NC(=O)[C@H](C)c1cc2c(F)nccc2[nH]c1=O)c1ccc(F)cc1F (single isomer, unassigned)
[B] COc1ccc2[nH]c(=O)c(CC(=O)N[C@@H](C)c3ccc(F)cc3F)c(C)c2n1
[C] COc1ccc([C@@H](C)NC(=O)Cc2c(C)c3c(C)nccc3[nH]c2=O)cc1 (single isomer, unassigned)
[D] Cc1c([C@H](C)C(=O)N[C@@H](C)c2ccc(C#N)cc2F)c(=O)[nH]c2ccnc(C#N)c12 (single isomer, unassigned)
[E] Cc1nccc2[nH]c(=O)c(C3(C(=O)N[C@@H](C)c4ncc(C#N)cc4F)CC3)c(C)c12 (single isomer, unassigned)
rank_up(items): orders items by reported Skeletal EC25 in ascending numerical order. # output: labels, in the requested order
B, D, A, C, E

---

- tested.target: Porcine ventricle myofibrils (ventricular myosin ATPase) (Sus scrofa, UniProt P79293)
- Construct: Myofibrils from porcine cardiac muscle was isolated from the left ventricle of Yucatan minipigs; tissue Exemplar Genetics; host or cells: left ventricle of Yucatan minipigs, myofibrils prepared in house
- assay.details: Myofibril ATPase assay, porcine ventricle myofibrils
- Assay type: biochemical, porcine (Yucatan minipigs)
- measurement.parameters: Y75 value (no ‡ mark); porcine ventricle myofibrils
observable: Ventricular EC25 (µM)

C[C@@H](NC(=O)C(F)(F)c1cc2cc(F)ccc2[nH]c1=O)c1nccc(C#N)n1 (single isomer, unassigned) [compound 2559] | 100.00

[A] Cc1c(C2(C(=O)N[C@H]3CCc4cc(C#N)cnc43)CC2)c(=O)[nH]c2ccc(F)cc12 (single isomer, unassigned) [compound 2504]
[B] O=C(Cc1cc2c(F)c(F)ccc2[nH]c1=O)N1CC2CC1c1ccccc12 (stereo not shown) [compound 4504]
Parameter metric = Ventricular EC25. Return the lower-valued option from A and B . Your choice should be expressed through its label.
B

---

- Test system: Porcine atria myofibrils (atrial myosin ATPase)
- assay.details: Myofibril ATPase assay, porcine atria myofibrils
- Format: biochemical
- measurement.parameters: Y75 value (no ‡ mark); porcine atria myofibrils
- Description: Example 1. Myofibril ATPase Assay Myofibril ATPase assays are known in the art to be useful in evaluating small molecules for the treatment of HCM and other cardiac indications. Myosin ATPase activity is assessed by using a coupled reaction system, in which ADP generated by the myosin ATPase function is coupled to the disappearance of NADH through the pyruvate kinase/lactate dehydrogenase (PK-LDH) system. […]
observable: Atrial EC25 (nM)

[A] Cc1c(C(F)(F)C(=O)NC(C)c2cccc(C#N)n2)c(=O)[nH]c2ccc(F)c(F)c12 (single isomer, unassigned) [Compound 2588]
[B] Cc1c(CC(=O)N[C@H](CO)c2ccc(C#N)cc2F)c(=O)[nH]c2ccc(F)c(C3CC3)c12
[C] Cc1c(C2(C(=O)N[C@@H](C)c3ncc(C#N)cc3F)CC2)c(=O)[nH]c2ccc(F)cc12 (single isomer, unassigned)
[D] C[C@@H](NC(=O)Cc1c(C2CC2)c2cc(F)ccc2[nH]c1=O)c1ncc(C#N)cn1 (single isomer, unassigned)
[E] Cc1c([C@@H](C)C(=O)N[C@@H](C)c2ncc(C#N)cc2F)c(=O)[nH]c2ccc(F)c(F)c12 (relative stereo)
In ascending order of recorded Atrial EC25, list the compounds from the set above. Write the labels in rank order as requested.
E, C, D, B, A
